system: Setaria viridis (SETVI); assay: Adjuvant efficacy with pinoxaden, glasshouse spray test; format: in vivo; conditions: pinoxaden EC, mean over 7.5 and 15 g/ha and 3 replicates; adjuvant 0.2% v/v (none in No Adjuvant rows); % leaf area killed, 21 days after application; Tests 1-4 separate runs
Grouping key: Mean % Herbicidal Activity SETVI. Bins: low bin = under 80%, mid bin = from 80% up to 90%, high bin = 90% and over

1. CCCCCCCCC=CCCCCCCCCOc1cc(OCCOCCOCCOCCOCCOCCOCCOCCOCCOCCOCCOCCOCCOCCOCCOCCOCCOCCOCCOCCOC)ncn1 = mid bin
2. CCCCCCCCCCCCOc1cc(OCCOCCOCCOCCOCCOCCOCCOCCOCCOCCOC)ncn1 = high bin
3. CCCCCCCCCCCCOc1cc(OCC(C)OCC(C)OCC(C)OC)ncn1 (centres unmarked) = high bin
4. CCCCCCCCCCCCOc1cc(OCCOCCOCCOCCOCCOCCOCCOC)ncn1 = mid bin
5. CCCCCCCCCOc1cc(OCCOCCOCCOCCOCCOCCOCCOCCOCCOCCOC)ncn1 = low bin
6. CCCCCCOc1cc(OCCOCCOCCOCCOCCOCCOCCOCCOCCOCCOC)ncn1 = mid bin

====

system: Digitaria sanguinalis (DIGSA); test: Adjuvant efficacy with mesotrione, glasshouse spray test; assay type: in vivo; details: mesotrione SC, mean over 30 and 60 g/ha and 3 replicates; adjuvant 0.2% v/v (none in No Adjuvant rows); % leaf area killed, 21 days after application; Tests 1-4 separate runs
Each record is given true if its reported Mean % Herbicidal Activity DIGSA is strictly below 80%. Records at or above 80% are given false.

1) CCCCCCCCCCCCOc1cc(OCC(C)OCC(C)OCC(C)OC)ncn1 (centres unmarked) [Adjuvant 12] = false
2) CCCCCCCCCCCCOc1cc(OCCOCCOCCOCCOCCOCCOCCOC)ncn1 [Adjuvant 6] = false
3) CCCCCCCCCOc1cc(OCCOCCOCCOCCOCCOCCOCCOCCOCCOCCOC)ncn1 [Adjuvant 5] = true
4) CCCCCCCCC=CCCCCCCCCOc1cc(OCCOCCOCCOCCOCCOCCOCCOCCOCCOCCOC)ncn1 [Adjuvant 10] = false
5) CCCCCCOc1cc(OCCOCCOCCOCCOCCOCCOCCOCCOCCOCCOCCOCCOCCOCCOCCOCCOCCOCCOCCOCCOC)ncn1 [Adjuvant 3] = false
6) CCCCCCCCC=CCCCCCCCCOc1cc(OCCOCCOCCOCCOCCOCCOCCOCCOCCOCCOCCOCCOCCOCCOCCOCCOCCOCCOCCOCCOC)ncn1 [Adjuvant 11] = false

====

test system: Chenopodium album (CHEAL); experiment: Adjuvant efficacy with fomesafen, glasshouse spray test; format: in vivo; conditions: fomesafen sodium salt SL, mean over 100 and 200 g/ha and 3 replicates; adjuvant 0.2% v/v (none in No Adjuvant rows); % leaf area killed, 21 days after application; Tests 1-4 separate runs
In this section, each of the molecules is paired with its reported Mean % Herbicidal Activity CHEAL.
measured.metric: Mean % Herbicidal Activity CHEAL (%)

1) CCCCCCCCC=CCCCCCCCCOc1cc(OCCOCCOCCOCCOCCOCCOCCOCCOCCOCCOCCOCCOCCOCCOCCOCCOCCOCCOCCOCCOC)ncn1 = 80
2) CCCCCCCCCCCCOc1cc(OCCOCCOCCOCCOCCOCCOCCOCCOCCOCCOC)ncn1 = 94
3) CCCCCCCCCCCCOc1cc(OCC(C)OCC(C)OCC(C)OC)ncn1 (stereo not shown) = 80
4) CCCCCCOc1cc(OCCOCCOCCOCCOCCOCCOCCOCCOCCOCCOCCOCCOCCOCCOCCOCCOCCOCCOCCOCCOC)ncn1 = 54
5) CCCCCCCCC=CCCCCCCCCOc1cc(OCCOCCOC)ncn1 = 64
6) CCCCCCOc1cc(OCCOCCOC)ncn1 = 79
7) CCCCCCCCCOc1cc(OCCOCCOCCOCCOCCOCCOCCOC)ncn1 = 45
8) CCCCCCCCCCCCOc1cc(OCCOCCOCCOCCOCCOCCOCCOC)ncn1 = 80
9) CCCCCCCCCOc1cc(OCCOCCOCCOCCOCCOCCOCCOCCOCCOCCOC)ncn1 = 55
10) CCCCCCOc1cc(OCCOCCOCCOCCOCCOCCOCCOCCOCCOCCOC)ncn1 = 68
